Data origin, for the record: ChEMBL document CHEMBL5053536

experiment: AUC(0 to t) in BALB/c mouse at 25 mg/kg, po measured upto 24 hrs by LC-MS/MS analysis; format: ADME, organism-based; parameters: dose 25 mg/kg, time < 24 hrs, route po; details: in vivo
readout label: AUC(0-t) at 24 h (ng·h/mL)
Write down the numeric answer in ng·h/mL and omit the unit.

Challenge: Request the reported AUC(0-t) at 24 h associated with `CC[C@@H]1CN(C(=O)c2cc(Cn3c(=O)[nH]c(=O)c4ccccc43)ccc2F)CCN1CC`
Response given: 555

====

assay: MRT(0 to t) in BALB/c mouse at 25 mg/kg, po measured upto 24 hrs by LC-MS/MS analysis; assay type: ADME, organism-based; conditions: in vivo
readout label: MRT last at 24 h (min)
Write down the numeric answer in min and omit the unit.

Challenge: Request the reported MRT last at 24 h associated with `CC[C@@H]1CN(C(=O)c2cc(Cn3c(=O)[nH]c(=O)c4ccccc43)ccc2F)CCN1CC`
Response given: 55.2

====

experiment: MRT(0 to infinity) in Beagle dog at 20 mg/kg, po measured upto 24 hrs by LC-MS/MS analysis; assay type: ADME, organism-based, Canis lupus familiaris; conditions: in vivo
readout label: MRT inf

Challenge: Request the reported MRT inf associated with `CC[C@@H]1CN(C(=O)c2cc(Cn3c(=O)[nH]c(=O)c4ccccc43)ccc2F)CCN1CC`
Response given: 4.85 h

====

test: Tmax in Sprague-Dawley rat at 20 mg/kg, po measured upto 24 hrs by LC-MS/MS analysis; assay type: ADME, organism-based; settings: in vivo
readout label: Tmax
# output: number + unit

Challenge: Request the reported Tmax associated with `CC[C@@H]1CN(C(=O)c2cc(Cn3c(=O)[nH]c(=O)c4ccccc43)ccc2F)CCN1CC`
Response given: 4.98 min

====

assay: MRT(0 to t) in Beagle dog at 0.4 mg/kg, iv measured upto 24 hrs by LC-MS/MS analysis; format: ADME, organism-based, Canis lupus familiaris; settings: in vivo
readout label: MRT last at 24 h

Challenge: Request the reported MRT last at 24 h associated with `CC[C@@H]1CN(C(=O)c2cc(Cn3c(=O)[nH]c(=O)c4ccccc43)ccc2F)CCN1CC`
Response given: 1.31 h

====

Answer each item with its documented Kd.
target: Poly [ADP-ribose] polymerase 2 (Homo sapiens); assay: Binding affinity to recombinant human PARP2 assessed as dissociation constant by SPR assay
Sequence (Q9UGN5 whole entry): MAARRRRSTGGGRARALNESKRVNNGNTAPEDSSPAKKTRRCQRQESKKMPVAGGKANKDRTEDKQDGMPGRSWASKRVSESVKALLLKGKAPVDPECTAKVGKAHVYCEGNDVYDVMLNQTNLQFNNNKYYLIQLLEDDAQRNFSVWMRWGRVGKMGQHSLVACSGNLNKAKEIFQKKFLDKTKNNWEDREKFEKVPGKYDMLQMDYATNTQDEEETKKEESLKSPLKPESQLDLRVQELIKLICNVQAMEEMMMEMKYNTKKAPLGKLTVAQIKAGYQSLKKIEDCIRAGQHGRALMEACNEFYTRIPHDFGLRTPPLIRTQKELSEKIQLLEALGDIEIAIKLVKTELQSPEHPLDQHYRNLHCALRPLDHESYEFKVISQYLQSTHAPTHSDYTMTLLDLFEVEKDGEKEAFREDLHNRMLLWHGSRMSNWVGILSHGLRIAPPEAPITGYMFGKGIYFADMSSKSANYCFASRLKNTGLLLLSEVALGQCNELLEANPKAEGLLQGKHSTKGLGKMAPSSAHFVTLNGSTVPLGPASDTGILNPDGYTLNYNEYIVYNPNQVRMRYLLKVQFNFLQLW
Write down the numeric answer in nM and omit the unit.

Challenge: Request the reported Kd associated with `CC[C@@H]1CN(C(=O)c2cc(Cn3c(=O)[nH]c(=O)c4ccccc43)ccc2F)CCN1CC1CC1`
Response given: 33

Challenge: Cool, now `CC[C@@H]1CN(C(=O)c2cc(Cn3c(=O)[nH]c(=O)c4ccccc43)ccc2F)CCN1CC`
Response given: 51.5

====

molecular target: Poly [ADP-ribose] polymerase 1 (Homo sapiens, UniProt P09874); test: Inhibition of recombinant human PARP1 using NAD+ as substrate incubated for 1 hr by ELISA
Sequence (P09874 whole entry): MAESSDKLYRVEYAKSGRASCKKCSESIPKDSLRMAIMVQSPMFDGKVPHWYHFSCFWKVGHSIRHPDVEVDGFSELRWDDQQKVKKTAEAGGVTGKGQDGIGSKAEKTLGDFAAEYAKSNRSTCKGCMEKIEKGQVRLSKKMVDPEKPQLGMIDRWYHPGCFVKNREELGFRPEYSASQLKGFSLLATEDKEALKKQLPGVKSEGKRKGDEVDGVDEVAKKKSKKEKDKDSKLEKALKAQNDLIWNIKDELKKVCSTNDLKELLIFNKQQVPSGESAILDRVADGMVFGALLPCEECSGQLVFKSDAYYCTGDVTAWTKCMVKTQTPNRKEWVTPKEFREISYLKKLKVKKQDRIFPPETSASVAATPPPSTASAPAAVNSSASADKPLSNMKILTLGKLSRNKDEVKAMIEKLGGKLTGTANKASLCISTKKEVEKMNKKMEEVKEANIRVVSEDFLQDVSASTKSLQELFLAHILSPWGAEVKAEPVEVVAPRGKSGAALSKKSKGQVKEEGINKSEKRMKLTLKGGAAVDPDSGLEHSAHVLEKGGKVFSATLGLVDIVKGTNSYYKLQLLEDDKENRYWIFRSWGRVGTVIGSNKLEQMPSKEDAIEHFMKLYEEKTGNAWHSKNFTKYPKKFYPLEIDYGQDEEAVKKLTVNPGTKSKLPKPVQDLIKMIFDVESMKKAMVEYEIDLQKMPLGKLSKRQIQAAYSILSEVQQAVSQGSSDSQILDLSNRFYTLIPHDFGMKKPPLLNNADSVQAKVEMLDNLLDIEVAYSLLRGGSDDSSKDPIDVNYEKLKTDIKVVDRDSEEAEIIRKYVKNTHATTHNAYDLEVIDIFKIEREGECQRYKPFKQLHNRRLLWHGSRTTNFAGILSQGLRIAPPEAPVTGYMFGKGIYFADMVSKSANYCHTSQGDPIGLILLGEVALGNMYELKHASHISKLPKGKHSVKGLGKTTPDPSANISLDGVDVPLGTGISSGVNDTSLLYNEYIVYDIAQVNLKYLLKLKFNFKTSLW
readout label: IC50 (nM)
Write down the numeric answer in nM and omit the unit.

Challenge: Request the reported IC50 associated with `CC[C@H]1CN(C(=O)c2cc(Cn3c(=O)[nH]c(=O)c4ccccc43)ccc2F)CCN1CC`
Response given: 50.3

Challenge: Cool, now `CC(C)=CCN1CCN(C(=O)c2cc(Cn3c(=O)[nH]c(=O)c4ccccc43)ccc2F)C[C@H]1C`
Response given: 30.2

Challenge: Cool, now `CC(C)C(=O)N1CCN(C(=O)c2cc(Cn3c(=O)[nH]c(=O)c4ccccc43)ccc2F)C[C@@H]1C`
Response given: 6.15

Challenge: Cool, now `CCCN1CCN(C(=O)c2cc(Cn3c(=O)[nH]c(=O)c4ccccc43)ccc2F)C[C@@H]1C`
Response given: 8.17
